target: GST-hRIPK1 (8-327) (Homo sapiens (Human)); experiment: Fluorescent Polarization Binding (FP Binding) assay
Sequence (Q13546 8-327): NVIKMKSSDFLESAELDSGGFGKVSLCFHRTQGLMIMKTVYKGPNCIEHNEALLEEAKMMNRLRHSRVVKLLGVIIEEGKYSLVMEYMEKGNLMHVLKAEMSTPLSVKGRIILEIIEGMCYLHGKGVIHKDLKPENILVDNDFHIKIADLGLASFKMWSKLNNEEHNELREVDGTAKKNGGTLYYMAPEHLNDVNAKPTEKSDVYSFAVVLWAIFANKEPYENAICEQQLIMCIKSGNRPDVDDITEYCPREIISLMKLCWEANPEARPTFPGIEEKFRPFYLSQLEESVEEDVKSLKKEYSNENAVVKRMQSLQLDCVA
MEASURED PARAMETER: IC50

Request: Provide value of IC50 for this record tested with GST-hRIPK1 (8-327) (Homo sapiens (Human)): [2H]C([2H])([2H])N1C(=O)[C@H](NC(=O)c2nn(Cc3ccccc3)cc2F)[C@@H]2C[C@@H]2c2cc(S(C)(=O)=O)ccc21 [Example 183A]
Response: > 3 µM

Request: Provide value of IC50 for this record tested with GST-hRIPK1 (8-327) (Homo sapiens (Human)): C[C@H]1Oc2cccnc2N(C)C(=O)[C@H]1NC(=O)c1nn(Cc2ccccc2)cc1Cl
Response: 0.0001 to 1 µM

Request: Provide value of IC50 for this record tested with GST-hRIPK1 (8-327) (Homo sapiens (Human)): C[C@H]1Oc2cccnc2N(C)C(=O)[C@H]1NC(=O)c1ccn(Cc2ccccc2)n1
Response: 0.0001 to 1 µM

Request: Provide value of IC50 for this record tested with GST-hRIPK1 (8-327) (Homo sapiens (Human)): CN1C(=O)[C@@H](NC(=O)c2nn(Cc3ccccc3)cc2F)CCc2cccnc21 [Example 111B]
Response: 0.0001 to 1 µM
